- Assay system: T1, purified interference factor(s) from Donor C (human)
- T1 construct: the text names the donors 8, 19 and 30; also called interference in serum from Donor C
- Method description: SPR, interference factor immobilized; % of Fig. 9 reference
Endpoint name: interference binding, % of Reference Sequence (%)

Reference set (5 entries):
SEQ ID NO: 81 (VHH) VHH: EVQLVESGGGVVQPGGSLRLSCAASRSIGRLDRMGWYRHRPGEPRELVATITGGSSINYGDSVKGRFTISIDNSKNTVYLQMNSLRPEDTAVYYCNFNKYVTSRDTWGQGTLVTVSS
89
SEQ ID NO: 86 (VHH) VHH: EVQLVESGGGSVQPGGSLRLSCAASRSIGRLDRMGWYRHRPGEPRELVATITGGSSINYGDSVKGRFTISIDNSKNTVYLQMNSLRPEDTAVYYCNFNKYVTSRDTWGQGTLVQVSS
86
SEQ ID NO: 77 (VHH) VHH: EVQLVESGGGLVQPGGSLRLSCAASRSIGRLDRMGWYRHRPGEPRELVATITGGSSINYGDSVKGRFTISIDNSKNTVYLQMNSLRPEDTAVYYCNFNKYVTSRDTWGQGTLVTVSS
13
SEQ ID NO: 69 (VHH) VHH: EVQLVESGGGLVQPGGSLRLSCAASRSIGRLDRMGWYRHRPGEPRELVATITGGSSINYGDSVKGRFTISIDNSKNTVYLQMNSLRPEDTAVYYCNFNKYVTSRDTWGQGTQVTVSS
84
SEQ ID NO: 66 (VHH) VHH: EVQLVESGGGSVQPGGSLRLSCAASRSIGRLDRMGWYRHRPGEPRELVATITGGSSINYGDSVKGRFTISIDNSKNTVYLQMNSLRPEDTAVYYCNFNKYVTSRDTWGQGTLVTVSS
84

P: SEQ ID NO: 78 (VHH) VHH: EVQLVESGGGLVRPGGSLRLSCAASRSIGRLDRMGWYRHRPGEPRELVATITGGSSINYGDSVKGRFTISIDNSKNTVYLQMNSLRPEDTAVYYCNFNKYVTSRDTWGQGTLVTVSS
Q: SEQ ID NO: 89 (VHH) VHH: EVQLVESGGGSVQAGGSLRLSCAASRSIGRLDRMGWYRHRPGEPRELVATITGGSSINYGDSVKGRFTISIDNSKNTVYLQMNSLRPEDTAVYYCNFNKYVTSRDTWGQGTLVQVGG
R: SEQ ID NO: 87 (VHH) VHH: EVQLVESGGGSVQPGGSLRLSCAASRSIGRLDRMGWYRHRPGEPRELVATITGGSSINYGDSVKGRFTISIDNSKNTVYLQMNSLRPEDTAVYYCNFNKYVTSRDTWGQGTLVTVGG
Your job: order these 3 records by interference binding, % of Reference Sequence, ascending. # respond with the labels, arranged in the requested order
Q, R, P
